- TESTED SYSTEM: T1, cyno FcRn/b2M (cyno, UniProt Q8SPV9 24-297; Q8SPW0 21-119, biotinylated)
- T1 construct: bought recombinant biotinylated protein (Immunitrack ITF05 or ACRO FCM-C82W5); also called cFcRn; cFcRn/cb2M
- T1 sequence (Q8SPV9 24-297 limits assumed, chain 1 of 2): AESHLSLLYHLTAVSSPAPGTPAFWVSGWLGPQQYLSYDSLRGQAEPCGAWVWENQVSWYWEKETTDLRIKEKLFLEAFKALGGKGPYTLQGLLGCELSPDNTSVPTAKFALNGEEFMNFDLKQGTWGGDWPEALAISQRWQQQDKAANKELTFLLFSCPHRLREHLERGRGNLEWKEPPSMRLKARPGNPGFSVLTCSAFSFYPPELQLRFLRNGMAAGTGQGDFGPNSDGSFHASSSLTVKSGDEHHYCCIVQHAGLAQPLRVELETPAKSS
- T1 sequence (Q8SPW0 21-119 limits assumed, chain 2 of 2): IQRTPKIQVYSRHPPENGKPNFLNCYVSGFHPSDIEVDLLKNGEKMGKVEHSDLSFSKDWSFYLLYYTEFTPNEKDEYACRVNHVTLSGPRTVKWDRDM
- TEST NAME: SPR off-rate; pH 7.4 vs pH 6.0;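 note: surface plasmon resonance with diluted periplasmic extracts flowed over ligand surfaces, 120 s association and 600–3600 s dissociation at 25 °C, running buffer containing 150 mM NaCl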
If the reported kd ratio pH 7.4/6.0 equals or exceeds 50, assign TRUE. If not, assign FALSE.

Determine whether measured kd ratio pH 7.4/6.0 meets or exceeds 50 for T0263018B11 G54P (VHH, name in Kabat numbering, FLAG3-His6 tagged) VHH: EVQLVESGGGVVQPGGSLRLSCAASGFTFSSYAMYWVRQAPGKGLEWVSAISSGPGSTDYADSVKGRFTISRDNSKNTLYLQMNSLRPEDTALYYCAADTLYTSLTWYSYWGQGTLVTVSS
FALSE

Determine whether measured kd ratio pH 7.4/6.0 meets or exceeds 50 for T0263018B11 S52aV (VHH, name in Kabat numbering, FLAG3-His6 tagged) VHH: EVQLVESGGGVVQPGGSLRLSCAASGFTFSSYAMYWVRQAPGKGLEWVSAISVGGGSTDYADSVKGRFTISRDNSKNTLYLQMNSLRPEDTALYYCAADTLYTSLTWYSYWGQGTLVTVSS
FALSE

Determine whether measured kd ratio pH 7.4/6.0 meets or exceeds 50 for T0263018B11 S31V (VHH, name in Kabat numbering, FLAG3-His6 tagged) VHH: EVQLVESGGGVVQPGGSLRLSCAASGFTFSVYAMYWVRQAPGKGLEWVSAISSGGGSTDYADSVKGRFTISRDNSKNTLYLQMNSLRPEDTALYYCAADTLYTSLTWYSYWGQGTLVTVSS
TRUE

Determine whether measured kd ratio pH 7.4/6.0 meets or exceeds 50 for T0263018B11 T57I (VHH, name in Kabat numbering, FLAG3-His6 tagged) VHH: EVQLVESGGGVVQPGGSLRLSCAASGFTFSSYAMYWVRQAPGKGLEWVSAISSGGGSIDYADSVKGRFTISRDNSKNTLYLQMNSLRPEDTALYYCAADTLYTSLTWYSYWGQGTLVTVSS
FALSE

Determine whether measured kd ratio pH 7.4/6.0 meets or exceeds 50 for T0263018B11 S30Q (VHH, name in Kabat numbering, FLAG3-His6 tagged) VHH: EVQLVESGGGVVQPGGSLRLSCAASGFTFQSYAMYWVRQAPGKGLEWVSAISSGGGSTDYADSVKGRFTISRDNSKNTLYLQMNSLRPEDTALYYCAADTLYTSLTWYSYWGQGTLVTVSS
FALSE

Determine whether measured kd ratio pH 7.4/6.0 meets or exceeds 50 for T0263018B11 S52aW (VHH, name in Kabat numbering, FLAG3-His6 tagged) VHH: EVQLVESGGGVVQPGGSLRLSCAASGFTFSSYAMYWVRQAPGKGLEWVSAISWGGGSTDYADSVKGRFTISRDNSKNTLYLQMNSLRPEDTALYYCAADTLYTSLTWYSYWGQGTLVTVSS
TRUE

Determine whether measured kd ratio pH 7.4/6.0 meets or exceeds 50 for T0263018B11 S56L (VHH, name in Kabat numbering, FLAG3-His6 tagged) VHH: EVQLVESGGGVVQPGGSLRLSCAASGFTFSSYAMYWVRQAPGKGLEWVSAISSGGGLTDYADSVKGRFTISRDNSKNTLYLQMNSLRPEDTALYYCAADTLYTSLTWYSYWGQGTLVTVSS
FALSE

Determine whether measured kd ratio pH 7.4/6.0 meets or exceeds 50 for T0263018B11 S52aM (VHH, name in Kabat numbering, FLAG3-His6 tagged) VHH: EVQLVESGGGVVQPGGSLRLSCAASGFTFSSYAMYWVRQAPGKGLEWVSAISMGGGSTDYADSVKGRFTISRDNSKNTLYLQMNSLRPEDTALYYCAADTLYTSLTWYSYWGQGTLVTVSS
FALSE
